Below, each of the binders is paired with its reported MFI value.
- Measured Target: T1, mouse TMEM106B (mouse, UniProt Q80X71 2-275)
- T1 construct: transiently expressed on HEK293 cells, or native on mouse Neuro2a cells; also called moTMEM106B; murine TMEM106B
- Assay Procedure: FACS Neuro2a;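 also: flow cytometry of antibody binding to cells: hybridoma supernatant or purified antibody at 10 µg/ml, 1 h on ice, secondary detection, propidium iodide–positive dead cells gated out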
Don't forget the unit after the number, please.

Example entries begin here.
[
  {
    "Binder": "TM-10 (antibody, V domains shown) VH: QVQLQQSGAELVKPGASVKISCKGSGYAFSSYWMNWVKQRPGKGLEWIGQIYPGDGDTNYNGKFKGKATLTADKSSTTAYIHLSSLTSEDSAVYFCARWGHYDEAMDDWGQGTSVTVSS VL: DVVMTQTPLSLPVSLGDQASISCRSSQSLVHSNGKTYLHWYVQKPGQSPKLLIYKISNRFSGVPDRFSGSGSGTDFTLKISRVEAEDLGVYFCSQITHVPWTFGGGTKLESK",
    "MFI": "604 MFI"
  },
  {
    "Binder": "TM-42 (antibody, V domains shown) VH: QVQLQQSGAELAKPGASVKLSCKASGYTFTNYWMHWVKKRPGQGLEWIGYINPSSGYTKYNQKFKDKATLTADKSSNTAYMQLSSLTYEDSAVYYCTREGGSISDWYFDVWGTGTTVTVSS VL: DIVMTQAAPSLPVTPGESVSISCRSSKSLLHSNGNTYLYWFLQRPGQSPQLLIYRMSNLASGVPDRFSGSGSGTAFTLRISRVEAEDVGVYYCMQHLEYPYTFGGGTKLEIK",
    "MFI": "237 MFI"
  },
  {
    "Binder": "TM-33 (antibody, V domains shown, mouse IgG (hybridoma)) VH: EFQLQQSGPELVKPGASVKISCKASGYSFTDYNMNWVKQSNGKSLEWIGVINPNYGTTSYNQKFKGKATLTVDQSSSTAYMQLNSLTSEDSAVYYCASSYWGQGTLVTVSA VL: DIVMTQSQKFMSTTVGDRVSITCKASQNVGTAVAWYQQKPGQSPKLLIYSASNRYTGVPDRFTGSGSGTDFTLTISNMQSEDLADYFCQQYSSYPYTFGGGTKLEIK",
    "MFI": "233 MFI"
  }
]

Measured MFI of TM-8 (antibody, V domains shown, mouse IgG (hybridoma)) VH: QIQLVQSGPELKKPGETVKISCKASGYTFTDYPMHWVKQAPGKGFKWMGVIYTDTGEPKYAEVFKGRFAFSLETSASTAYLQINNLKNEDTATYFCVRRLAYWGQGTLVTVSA VL: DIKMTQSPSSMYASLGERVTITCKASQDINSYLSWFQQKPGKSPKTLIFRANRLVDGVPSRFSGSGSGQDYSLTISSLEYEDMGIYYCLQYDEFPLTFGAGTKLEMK : 370 MFI

Measured MFI of TM-6 (antibody, V domains shown, mouse IgG (hybridoma)) VH: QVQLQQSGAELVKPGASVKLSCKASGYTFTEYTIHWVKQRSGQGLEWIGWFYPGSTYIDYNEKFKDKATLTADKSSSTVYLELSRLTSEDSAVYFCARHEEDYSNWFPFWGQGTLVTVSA VL: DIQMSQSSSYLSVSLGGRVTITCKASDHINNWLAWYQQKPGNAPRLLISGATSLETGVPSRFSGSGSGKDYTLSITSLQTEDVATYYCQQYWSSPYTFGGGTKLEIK : 371 MFI
